Numbers sourced from patent US11753408B2.

Item-by-item account of mTOR
# measured_target: mTOR (Homo sapiens)
# method_notes: mTOR activity (no method described)
# Assay type: biochemical

compound	uom	mTOR
O=C1Cc2cc(-c3ccc4ncc5ccc(=O)n(-c6ccc(C(=O)N7CCOCC7)cc6)c5c4c3)ccc2N1 [Compound 127]	nM	338.7
Cn1c(=O)n(-c2ccc(C(=O)O)cc2)c2c3cc(-c4ccc(Cl)cc4)ccc3ncc21 [Compound 435]	nM	364.6
NC1(c2ccc(-c3ccc4ncc5ccc(=O)n(-c6ccc(C(=O)N7CCN(CCO)CC7)cc6)c5c4c3)cc2)CC1 [Compound 269]	nM	3874
Nc1ccc(-c2ccc3ncc4ccc(=O)n(-c5ccc(C(=O)N6CCOCC6)cc5)c4c3c2)cc1 [Compound 118]	nM	269.1
CCN(CC)C(=O)c1ccc(-n2c(=O)ccc3cnc4ccc(-c5ccc(Cl)cc5)cc4c32)cc1 [Compound 132]	nM	736.2
Cc1cccc(-c2ccc3ncc4ccc(=O)n(-c5ccc(C(=O)N6CCOCC6)cc5)c4c3c2)c1 [Compound 121]	nM	522.6
Cc1cc(C(=O)NC2CC2)ccc1-n1c(=O)ccc2cnc3ccc(-c4ccc(C5(N)CC5)cc4)cc3c21 [Compound 224]	nM	100000

====

Item-by-item account of mTOR
# measured_target: mTOR (Homo sapiens)
# method_notes: mTOR activity (no method described)
# Type: biochemical

compound	uom	mTOR
CN(C)Cc1ccc(-c2ccc3ncc4ccc(=O)n(-c5ccc(C(=O)N6CCNCC6)cc5)c4c3c2)cc1 [Compound 167]	µM	22.69
NC(=O)c1cccc(-n2c(=O)ccc3cnc4ccc(-c5ccc(N)nc5)cc4c32)c1 [Compound 333]	µM	0.2135
CC(=O)n1c(=O)n(-c2cccc(C#N)c2)c2c3cc(-c4ccc(Cl)cc4)ccc3ncc21 [Compound 405]	µM	100
Cc1cc(C(=O)NCCN2CCC2)ccc1-n1c(=O)ccc2cnc3ccc(-c4ccc(Cl)cc4)cc3c21 [Compound 293]	µM	6.103
O=C(c1ccc(-n2c(=O)ccc3cnc4ccc(-c5cccc(Cl)c5)cc4c32)cc1)N1CCOCC1 [Compound 122]	µM	1.303
CN(C)CCN(C)C(=O)c1ccc(-n2c(=O)ccc3cnc4ccc(-c5ccc(Cl)cc5)cc4c32)cc1 [Compound 299]	µM	5.83
NCc1cccc(-c2ccc3ncc4ccc(=O)n(-c5ccc(C(=O)N6CCOCC6)cc5)c4c3c2)c1 [Compound 180]	µM	2.454

====

# method_notes: Microsomal stability (rat)
# Format: in vitro ADME
# conditions_used: rat microsomes

input_smiles	Microsomal Stability (rat) T1/2
NCc1cccc(-c2ccc3ncc4ccc(=O)n(-c5ccc(C(=O)N6CCOCC6)cc5)c4c3c2)c1	>30 min
Cn1c(=O)n(-c2cccc(C#N)c2)c2c3cc(-c4cccc(C#N)c4)ccc3ncc21	>30.0 min
CS(=O)(=O)c1ccc(-n2c(=O)ccc3cnc4ccc(-c5ccc(Cl)cc5)cc4c32)cc1CN1CCNCC1	>30 min
O=C(NO)c1ccc(-n2c(=O)ccc3cnc4ccc(-c5ccc(Cl)cc5)cc4c32)cc1	>30 min
O=C(c1ccc(-n2c(=O)ccc3cnc4ccc(-c5ccc(CN6CCC6)cc5)cc4c32)cc1)N1CCOCC1	>30 min
CN1CCN(CCNC(=O)c2ccc(-n3c(=O)ccc4cnc5ccc(-c6ccc(Cl)cc6)cc5c43)cc2)CC1	4.5 min
CS(=O)(=O)c1ccc(-n2c(=O)ccc3cnc4ccc(-c5ccc(N)nc5)cc4c32)cc1N1CCOCC1	>30.00 min
